experiment: chemical genetic growth profiling, strain panel (AID 1159580);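 further: tested at 20 µM; growth read once vehicle control cultures reached saturation at 30 °C; 1 = growth at the plate median or of vehicle wells; lower values mean less growth of the strain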; settings: S. cerevisiae deletion strains, growth OD, locus YER015W, strain faa2, active compounds read low
Among all 5,500 compounds or so, about 2,000 (36%) were called active. About 18% were inconclusive and are not listed. Some of the results follow.
Would you kindly list normalized growth for each of these compounds?
Please give the numeric answer without any surrounding text.

Query (compound): NS(=O)(=O)c1cc2c(cc1Cl)NC(C1CC3C=CC1C3)NS2(=O)=O (stereo not given) ; field requested: normalized growth
0.994

Query (compound): `Cc1cc(O)c(C=O)c2c1C(=O)Oc1c(COC(=O)/C=C/C(=O)O)c(O)c(C(=O)O)c(C)c1O2` ; field requested: normalized growth
0.874

Query (compound): `O=C(Nc1ccccc1)Nc1ccccc1` ; field requested: normalized growth
0.957

Query (compound): `COc1c2ccccc2nc2occc12` ; field requested: normalized growth
0.923

Query (compound): `Nc1cc(C(Cl)=C(Cl)Cl)c(S(N)(=O)=O)cc1S(N)(=O)=O` ; field requested: normalized growth
1.02
